From: the supplement of paper PMC9233669

Test system: biotinyl-Leu-oxazolone
Test Name: self-aminoacylation, catalytic enhancement (BLO) (fold over background); higher = more active; k-Seq, kA / k0A0; sequences stand for … in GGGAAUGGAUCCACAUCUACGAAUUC…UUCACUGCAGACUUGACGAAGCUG
This sample holds only a part of the variants without activity.
Measure Name: self-aminoacylation
Hey, just send me the number, nothing else.

Examples with answers:
1. AUUCACCUAAGUCAGCGGGUG [Fam2.2 aminoacylation ribozyme variant] : 5.01
2. CCAGACUUCAAGCAAUCGAUC [Fam1B.1 aminoacylation ribozyme variant] : 0.614
3. AUUACCCUGGUCUUCGAGUGG [Fam2.1 aminoacylation ribozyme variant] : 1.69
4. AUUACCCUGGUCAUCGAGUGG [Fam2.1 aminoacylation ribozyme variant] : 55.4
5. ACACACUUCAAGCACUCGGUC [Fam1B.1 aminoacylation ribozyme variant] : 1.62
6. CCACACUGCAAGCAAUAGGUC [Fam1B.1 aminoacylation ribozyme variant] : 0.915
7. AUUCACCCAAGUCAUCGGGUG [Fam2.2 aminoacylation ribozyme variant] : 14.8
8. AUUGCCCUGGUCAGCGAGUGA [Fam2.1 aminoacylation ribozyme variant] : 5.65
9. AAGUUUCCUAAUAGUCGCAAG [Fam3.1 aminoacylation ribozyme variant] : 1.42
10. AUUCGCCUAGGUCAUCCGGUG [Fam2.2 aminoacylation ribozyme variant] : 10.9

Task item: Read the entry AUUCACCUGGCUCAUCGGGUG [Fam2.2 aminoacylation ribozyme variant] and write its reported self-aminoacylation.
Reply: 3.2

Task item: Read the entry CCACACUUCAAGAAAUCGCUC [Fam1B.1 aminoacylation ribozyme variant] and write its reported self-aminoacylation.
Reply: 0.886

---

System: biotinyl-Met-oxazolone
Test Name: self-aminoacylation, catalytic enhancement (BMO) (fold over background); higher = more active; k-Seq, kA / k0A0; sequences stand for … in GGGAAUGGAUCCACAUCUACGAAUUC…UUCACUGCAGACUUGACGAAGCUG
This sample holds only a part of the variants without activity.
Here the recorded self-aminoacylation is given for each entry.
Hey, just send me the number, nothing else.

1) AUUACCCUGGUAAUCUAGUGA [Fam2.1 aminoacylation ribozyme variant] : 13

Task item: Read the entry CUACUUCAAUCAAUCGGUCUG [Fam1A.1 aminoacylation ribozyme variant] and write its reported self-aminoacylation.
Reply: 1.04

Task item: Read the entry AUUACUCUGGUCAUCGAGUGC [Fam2.1 aminoacylation ribozyme variant] and write its reported self-aminoacylation.
Reply: 1.19

Task item: Read the entry AUUCACCGAGGUCAUCGGGGG [Fam2.2 aminoacylation ribozyme variant] and write its reported self-aminoacylation.
Reply: 2.95

---

Tested on: biotinyl-Val-oxazolone
Test Name: self-aminoacylation, catalytic enhancement (BVO) (fold over background); higher = more active; k-Seq, kA / k0A0; sequences stand for … in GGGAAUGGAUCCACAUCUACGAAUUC…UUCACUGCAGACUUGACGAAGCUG
Fewer inactive variants are shown than the library holds.
Here the recorded self-aminoacylation is given for each entry.
Hey, just send me the number, nothing else.

1. CUACUUCAAACAAUCGCUCAG [Fam1A.1 aminoacylation ribozyme variant] : 0.689
2. AAGUUUGCUAGAAGUCGCAAG [Fam3.1 aminoacylation ribozyme variant] : 0.656
3. AUUACCGUGGUCAUCGAGUGG [Fam2.1 aminoacylation ribozyme variant] : 1.33
4. CAACUUCAAACAGUCGGUCUG [Fam1A.1 aminoacylation ribozyme variant] : 1.19
5. AUCACCCAGGUCAUCGAGUGA [Fam2.1 aminoacylation ribozyme variant] : 4.61
6. AGACUUCAAACAAUCGGUCUG [Fam1A.1 aminoacylation ribozyme variant] : 1.93
7. AUUCACCUAGGUCAUCGGGCG [Fam2.2 aminoacylation ribozyme variant] : 4.82
8. AUUACACUGGUCAUCGAGUUA [Fam2.1 aminoacylation ribozyme variant] : 1.02

Task item: Quote biotinyl-Val-oxazolone self-aminoacylation for entry AAGUUUGCUAACAGUCGAAAG [Fam3.1 aminoacylation ribozyme variant] .
Reply: 0.848

Task item: Quote biotinyl-Val-oxazolone self-aminoacylation for entry AUUCACCUGGGGCAUCGGGUG [Fam2.2 aminoacylation ribozyme variant] .
Reply: 6.59

Task item: Quote biotinyl-Val-oxazolone self-aminoacylation for entry CUACUUCAAUCAAUCGGUUUG [Fam1A.1 aminoacylation ribozyme variant] .
Reply: 0.96

Task item: Quote biotinyl-Val-oxazolone self-aminoacylation for entry CUUACCCUGGUCUUCGAGUGA [Fam2.1 aminoacylation ribozyme variant] .
Reply: 2.64

Task item: Quote biotinyl-Val-oxazolone self-aminoacylation for entry AAUCACCUAGGUCAGCGGGUG [Fam2.2 aminoacylation ribozyme variant] .
Reply: 2.9

Task item: Quote biotinyl-Val-oxazolone self-aminoacylation for entry CUUCACCUAGGUCAUCGUGUG [Fam2.2 aminoacylation ribozyme variant] .
Reply: 1.26

Task item: Quote biotinyl-Val-oxazolone self-aminoacylation for entry AUUACCCUGGUCAUCGAUAGA [Fam2.1 aminoacylation ribozyme variant] .
Reply: 0.77

Task item: Quote biotinyl-Val-oxazolone self-aminoacylation for entry AUUACCGUCGUCAUCGAGUGA [Fam2.1 aminoacylation ribozyme variant] .
Reply: 2.3

Task item: Quote biotinyl-Val-oxazolone self-aminoacylation for entry CCACACAUCUAGCAAUCGGUC [Fam1B.1 aminoacylation ribozyme variant] .
Reply: 0.93

Task item: Quote biotinyl-Val-oxazolone self-aminoacylation for entry AAGUUUGUUAGUAGUCGCAAG [Fam3.1 aminoacylation ribozyme variant] .
Reply: 0.823

---

Here the recorded self-aminoacylation is given for each entry.
System: biotinyl-Met-oxazolone
Test Name: self-aminoacylation, catalytic enhancement (BMO) (fold over background); higher = more active; k-Seq, kA / k0A0; sequences stand for … in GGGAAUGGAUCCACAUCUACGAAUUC…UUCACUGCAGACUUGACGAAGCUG
Fewer inactive variants are shown than the library holds.
Hey, just send me the number, nothing else.

1) CCACACUUAAAUCAAUCGGUC [Fam1B.1 aminoacylation ribozyme variant] : 0.589

Task item: Read the entry CCACGCGUCAAGCAAUCGGUC [Fam1B.1 aminoacylation ribozyme variant] and write its reported self-aminoacylation.
Reply: 0.841

Task item: Read the entry AUGCACCUGGGUCAUCGGGUG [Fam2.2 aminoacylation ribozyme variant] and write its reported self-aminoacylation.
Reply: 4.33

Task item: Read the entry AAGUUUGCUAAAAGUCGCAGG [Fam3.1 aminoacylation ribozyme variant] and write its reported self-aminoacylation.
Reply: 1.37

---

Tested on: biotinyl-Trp-oxazolone
Test Name: self-aminoacylation, catalytic enhancement (BWO) (fold over background); higher = more active; k-Seq, kA / k0A0; sequences stand for … in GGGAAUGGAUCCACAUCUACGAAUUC…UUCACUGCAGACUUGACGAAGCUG
Variants at the floor of the assay were thinned out.
Here the recorded self-aminoacylation is given for each entry.
Hey, just send me the number, nothing else.

1) CUACUUCAAACAAUGUGUCUG [Fam1A.1 aminoacylation ribozyme variant] : 0.583
2) CUUAGCCUGGUCAUCGAGUGA [Fam2.1 aminoacylation ribozyme variant] : 2.72
3) AUUAACCUGGUGAUCGAGUGA [Fam2.1 aminoacylation ribozyme variant] : 8.53

Attention now turns to another entry.
Task item: Read the entry CUACUUCCAACAAUCGGUGUG [Fam1A.1 aminoacylation ribozyme variant] and write its reported self-aminoacylation.
Reply: 1.09

---

Tested on: biotinyl-Met-oxazolone
Test Name: self-aminoacylation, catalytic enhancement (BMO) (fold over background); higher = more active; k-Seq, kA / k0A0; sequences stand for … in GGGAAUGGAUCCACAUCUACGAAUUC…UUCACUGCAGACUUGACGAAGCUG
Fewer inactive variants are shown than the library holds.
Returns 1 if the recorded self-aminoacylation is greater than or equal to 2, and -1 otherwise.

Solved cases (10 shown):
1) GAGAUUGCUAAUAGUCGCAAG [Fam3.1 aminoacylation ribozyme variant] : -1
2) AUUACCAUGGUCAUCGAGCGA [Fam2.1 aminoacylation ribozyme variant] : 1
3) ACUACCCAGGUCAUCGAGUGA [Fam2.1 aminoacylation ribozyme variant] : 1
4) CCACACUUCAAGCCAUGGGUC [Fam1B.1 aminoacylation ribozyme variant] : -1
5) AUUAACCUAGGUCAUCGAGUG [Fam2.2 aminoacylation ribozyme variant] : 1
6) AUUACCCUGGUCCUCGAGUGC [Fam2.1 aminoacylation ribozyme variant] : -1
7) AAGUUUGCUAAUUGUAGCAAG [Fam3.1 aminoacylation ribozyme variant] : -1
8) AACUUUGGUAAUAGUCGCAAG [Fam3.1 aminoacylation ribozyme variant] : 1
9) AUUCACUUAGGGCAUCGGGUG [Fam2.2 aminoacylation ribozyme variant] : 1
10) CUACUUCAAUCAAUCGGUCUA [Fam1A.1 aminoacylation ribozyme variant] : -1

Task item: Hi, just wondering whether AUUCACCUAGGUCGUCGCGUG [Fam2.2 aminoacylation ribozyme variant] shows self-aminoacylation of 2 or higher.
Reply: 1

Task item: Hi, just wondering whether UCACACUUCAAGCAAGCGGUC [Fam1B.1 aminoacylation ribozyme variant] shows self-aminoacylation of 2 or higher.
Reply: -1

Task item: Hi, just wondering whether CCAAACUUCAAGCCAUCGGUC [Fam1B.1 aminoacylation ribozyme variant] shows self-aminoacylation of 2 or higher.
Reply: -1

Task item: Hi, just wondering whether CUACUUCAAACUAUCGGUAUG [Fam1A.1 aminoacylation ribozyme variant] shows self-aminoacylation of 2 or higher.
Reply: -1

Task item: Hi, just wondering whether AUUACCCUGGUCGACGAGUGA [Fam2.1 aminoacylation ribozyme variant] shows self-aminoacylation of 2 or higher.
Reply: 1

Task item: Hi, just wondering whether CUACUUCAAACAAUCGAGCUG [Fam1A.1 aminoacylation ribozyme variant] shows self-aminoacylation of 2 or higher.
Reply: -1

Task item: Hi, just wondering whether AAUACCCUGGACAUCGAGUGA [Fam2.1 aminoacylation ribozyme variant] shows self-aminoacylation of 2 or higher.
Reply: 1
